All figures here come from ChEMBL document CHEMBL3351455.

log10 IC50 reference
# System: Lymphocyte
# assay_protocol: Inhibition of IL2 production in activated mouse lymphocytes after 3 hrs by ELISA
# Assay type: functional, cell-based
measured_attribute: log10 IC50 (log10 of the value in nM)

{"columns": ["structure_smiles", "log10 IC50"],
 "data": [
  ["CCn1c(NC2CCCC2)nc2c(-c3ccccc3)csc2c1=O", 3.26],
  ["CCn1c(NC2CCCC2)nc2ccsc2c1=O", 3.73],
  ["CCn1c(NC2CCCC2)nc2c(C#N)csc2c1=O", 2.95],
  ["CCn1c(NC2CCCC2)nc2c(-c3cccnc3)csc2c1=O", 1.95],
  ["CCn1c(NC2CCCC2)nc2c(-c3ccccc3C(=O)OC)csc2c1=O", 3.96],
  ["CCn1c(NC2CCCC2)nc2c(CCCN3CCOCC3)csc2c1=O", 3.30],
  ["CCn1c(NC2CCCC2)nc2c(C#CCN3CCOCC3)csc2c1=O", 3.23]
]}

----------
# System: Lymphocyte
# assay_protocol: Inhibition of IL2 production in activated mouse lymphocytes after 3 hrs by ELISA
# Type: functional, cell-based
Labelling: IC50 reported below 1000 nM becomes TRUE; at or above becomes FALSE.

{"columns": ["structure_smiles", "label_value"],
 "data": [
  ["CCn1c(NC2CCCC2)nc2c(N3CCN(C(=O)OC(C)(C)C)CC3=O)csc2c1=O", "FALSE"],
  ["CCn1c(NC2CCCC2)nc2c(-c3cccc(C(=O)OC)c3)csc2c1=O", "TRUE"],
  ["C#Cc1csc2c(=O)n(CC)c(NC3CCCC3)nc12", "TRUE"],
  ["CCn1c(NC2CCCC2)nc2c(-c3ccc(N4CCOCC4)nc3)csc2c1=O", "TRUE"],
  ["CCn1c(NC2CCCC2)nc2c(-c3ccc(C(=O)OC)cc3)csc2c1=O", "FALSE"],
  ["CCn1c(NC2CCCC2)nc2c(C)csc2c1=O", "FALSE"],
  ["CCc1csc2c(=O)n(CC)c(NC3CCCC3)nc12", "FALSE"],
  ["CCn1c(NC2CCCC2)nc2c(C#Cc3cccnc3)csc2c1=O", "FALSE"]
]}

----------
# system_tested: UniProt Q13946
# Sequence (Q13946 whole entry): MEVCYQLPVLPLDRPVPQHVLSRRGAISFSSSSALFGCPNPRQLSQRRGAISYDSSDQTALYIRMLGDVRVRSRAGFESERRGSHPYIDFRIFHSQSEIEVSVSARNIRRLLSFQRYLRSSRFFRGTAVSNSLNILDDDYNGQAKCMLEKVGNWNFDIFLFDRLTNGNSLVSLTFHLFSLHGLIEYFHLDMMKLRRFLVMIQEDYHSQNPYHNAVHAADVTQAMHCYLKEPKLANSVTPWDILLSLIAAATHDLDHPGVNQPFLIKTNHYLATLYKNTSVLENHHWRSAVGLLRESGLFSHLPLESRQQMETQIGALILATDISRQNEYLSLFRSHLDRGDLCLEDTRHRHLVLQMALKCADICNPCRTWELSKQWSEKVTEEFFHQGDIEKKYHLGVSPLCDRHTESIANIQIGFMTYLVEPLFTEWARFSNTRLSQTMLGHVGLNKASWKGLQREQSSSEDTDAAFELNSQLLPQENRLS
# assay_protocol: Inhibition of human PDE7A1 expressed in insect cells assessed as inhibition of [3H]cAMP to [3H]AMP hydrolysis after 30 mins by scintillation counting
pIC50: −log10 of the molar value.
measured_attribute: pIC50

{"columns": ["structure_smiles", "system_tested", "measured_attribute", "quantitative_result"],
 "data": [
  ["CCn1c(NC2CCCC2)nc2c(-c3ccccc3)csc2c1=O", "UniProt Q13946", "pIC50", 8.25],
  ["CCn1c(NC2CCCCC2)nc2ccsc2c1=O", "UniProt Q13946", "pIC50", 6.13],
  ["C=CCNc1nc2cc(-c3ccccc3)sc2c(=O)n1C", "UniProt Q13946", "pIC50", 5.17],
  ["CCn1c(NC2CCCC2)nc2c(C#Cc3cccnc3)csc2c1=O", "UniProt Q13946", "pIC50", 8.38],
  ["C=Cc1csc2c(=O)n(CC)c(NC3CCCC3)nc12", "UniProt Q13946", "pIC50", 7.52],
  ["CCc1csc2c(=O)n(CC)c(NC3CCCC3)nc12", "UniProt Q13946", "pIC50", 7.38],
  ["CCn1c(NC2CCCC2)nc2c(C#CCN3CCOCC3)csc2c1=O", "UniProt Q13946", "pIC50", 7.72],
  ["CCn1c(NC2CCCC2)nc2c(C)csc2c1=O", "UniProt Q13946", "pIC50", 7.01],
  ["CCn1c(NC2CCCC2)nc2c(-c3ccccc3C(=O)OC)csc2c1=O", "UniProt Q13946", "pIC50", 6.42],
  ["C=CCNc1nc2ccsc2c(=O)n1C", "UniProt Q13946", "pIC50", 5.30],
  ["CCn1c(NC2CCCC2)nc2ccsc2c1=O", "UniProt Q13946", "pIC50", 6.82],
  ["CCn1c(NC2CCCC2)nc2c(N3CCN(C(=O)OC(C)(C)C)CC3=O)csc2c1=O", "UniProt Q13946", "pIC50", 7.92],
  ["C=CCNc1nc2cc(-c3cccc(C(=O)NCCO)c3)sc2c(=O)n1C", "UniProt Q13946", "pIC50", 5.96],
  ["CCn1c(NC2CCCC2)nc2c(CCc3cccnc3)csc2c1=O", "UniProt Q13946", "pIC50", 8.14],
  ["CCn1c(NC2CCCC2)nc2c(C#N)csc2c1=O", "UniProt Q13946", "pIC50", 7.17],
  ["CCc1cc2nc(NC3CCCC3)n(CC)c(=O)c2s1", "UniProt Q13946", "pIC50", 5.19],
  ["CCn1c(NC2CCCC2)nc2c(-c3cccnc3)csc2c1=O", "UniProt Q13946", "pIC50", 8.70],
  ["CCn1c(NC2CCCC2)nc2cc(C)sc2c1=O", "UniProt Q13946", "pIC50", 4.96],
  ["CCn1c(NC2CCCC2)nc2c(-c3ccc(C(=O)OC)cc3)csc2c1=O", "UniProt Q13946", "pIC50", 8.31]
]}

----------
Consider compounds characterized by their log10 of IC50 with 3',5'-cyclic-AMP phosphodiesterase 4B (Homo sapiens).
Sequence (Q07343 whole entry): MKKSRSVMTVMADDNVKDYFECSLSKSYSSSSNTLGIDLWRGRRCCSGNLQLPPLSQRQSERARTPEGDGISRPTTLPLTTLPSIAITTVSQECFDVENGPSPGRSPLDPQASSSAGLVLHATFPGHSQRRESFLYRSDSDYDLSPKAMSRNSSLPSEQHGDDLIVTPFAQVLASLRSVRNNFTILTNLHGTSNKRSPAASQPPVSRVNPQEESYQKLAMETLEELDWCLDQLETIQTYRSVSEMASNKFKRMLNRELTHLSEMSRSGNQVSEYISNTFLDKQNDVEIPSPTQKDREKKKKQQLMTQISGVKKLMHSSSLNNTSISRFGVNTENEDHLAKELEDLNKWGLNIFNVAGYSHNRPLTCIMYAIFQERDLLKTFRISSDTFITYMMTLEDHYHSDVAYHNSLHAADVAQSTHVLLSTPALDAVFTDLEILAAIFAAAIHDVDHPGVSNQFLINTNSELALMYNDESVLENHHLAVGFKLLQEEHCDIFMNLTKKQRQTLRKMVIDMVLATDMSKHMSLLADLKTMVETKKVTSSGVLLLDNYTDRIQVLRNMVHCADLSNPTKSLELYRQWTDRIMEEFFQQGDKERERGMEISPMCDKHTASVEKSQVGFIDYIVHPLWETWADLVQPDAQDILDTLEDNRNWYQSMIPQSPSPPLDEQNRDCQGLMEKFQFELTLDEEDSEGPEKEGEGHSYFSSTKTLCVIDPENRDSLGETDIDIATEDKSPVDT
measured_attribute: log10 of IC50 (log10 of the value in µM)

{"columns": ["structure_smiles", "measured_attribute", "quantitative_result"],
 "data": [
  ["C=Cc1csc2c(=O)n(CC)c(NC3CCCC3)nc12", "log10 of IC50", 0.57],
  ["CCn1c(NC2CCCC2)nc2c(CCc3cccnc3)csc2c1=O", "log10 of IC50", 0.04],
  ["CCn1c(NC2CCCC2)nc2c(C#Cc3cccnc3)csc2c1=O", "log10 of IC50", 0.15],
  ["CCn1c(NC2CCCC2)nc2c(-c3ccccc3)csc2c1=O", "log10 of IC50", -0.14],
  ["CCn1c(NC2CCCC2)nc2c(-c3ccc(N4CCOCC4)nc3)csc2c1=O", "log10 of IC50", -0.28],
  ["CCn1c(NC2CCCC2)nc2c(-c3cccnc3)csc2c1=O", "log10 of IC50", -0.42],
  ["C#Cc1csc2c(=O)n(CC)c(NC3CCCC3)nc12", "log10 of IC50", 0.48],
  ["CCc1csc2c(=O)n(CC)c(NC3CCCC3)nc12", "log10 of IC50", 0.77],
  ["CCn1c(NC2CCCC2)nc2c(C#CCN3CCOCC3)csc2c1=O", "log10 of IC50", -0.09],
  ["CCn1c(NC2CCCC2)nc2c(-c3ccccc3C(=O)OC)csc2c1=O", "log10 of IC50", 0.58],
  ["CCn1c(NC2CCCC2)nc2c(N3CCN(C(=O)OC(C)(C)C)CC3=O)csc2c1=O", "log10 of IC50", 0.52],
  ["CCn1c(NC2CCCC2)nc2c(C#N)csc2c1=O", "log10 of IC50", 0.51],
  ["CCn1c(NC2CCCC2)nc2ccsc2c1=O", "log10 of IC50", 0.69],
  ["CCn1c(NC2CCCC2)nc2c(C)csc2c1=O", "log10 of IC50", 0.58]
]}

----------
# Test system: Lymphocyte
# assay_protocol: Inhibition of IL2 production in activated mouse lymphocytes after 3 hrs by ELISA
# Type: functional, cell-based
pIC50: −log10 of the molar value.

{"columns": ["structure_smiles", "pIC50"],
 "data": [
  ["CCn1c(NC2CCCC2)nc2c(-c3ccc(CN4CCOCC4)cc3)csc2c1=O", 6.00],
  ["CCn1c(NC2CCCC2)nc2c(CCc3cccnc3)csc2c1=O", 6.00],
  ["C=Cc1csc2c(=O)n(CC)c(NC3CCCC3)nc12", 6.01]
]}
